Form field: pIC50 (one value per entry).
Target: human recombinant HDAC6 (Homo sapiens, UniProt Q9UBN7)
Sequence (Q9UBN7 whole entry): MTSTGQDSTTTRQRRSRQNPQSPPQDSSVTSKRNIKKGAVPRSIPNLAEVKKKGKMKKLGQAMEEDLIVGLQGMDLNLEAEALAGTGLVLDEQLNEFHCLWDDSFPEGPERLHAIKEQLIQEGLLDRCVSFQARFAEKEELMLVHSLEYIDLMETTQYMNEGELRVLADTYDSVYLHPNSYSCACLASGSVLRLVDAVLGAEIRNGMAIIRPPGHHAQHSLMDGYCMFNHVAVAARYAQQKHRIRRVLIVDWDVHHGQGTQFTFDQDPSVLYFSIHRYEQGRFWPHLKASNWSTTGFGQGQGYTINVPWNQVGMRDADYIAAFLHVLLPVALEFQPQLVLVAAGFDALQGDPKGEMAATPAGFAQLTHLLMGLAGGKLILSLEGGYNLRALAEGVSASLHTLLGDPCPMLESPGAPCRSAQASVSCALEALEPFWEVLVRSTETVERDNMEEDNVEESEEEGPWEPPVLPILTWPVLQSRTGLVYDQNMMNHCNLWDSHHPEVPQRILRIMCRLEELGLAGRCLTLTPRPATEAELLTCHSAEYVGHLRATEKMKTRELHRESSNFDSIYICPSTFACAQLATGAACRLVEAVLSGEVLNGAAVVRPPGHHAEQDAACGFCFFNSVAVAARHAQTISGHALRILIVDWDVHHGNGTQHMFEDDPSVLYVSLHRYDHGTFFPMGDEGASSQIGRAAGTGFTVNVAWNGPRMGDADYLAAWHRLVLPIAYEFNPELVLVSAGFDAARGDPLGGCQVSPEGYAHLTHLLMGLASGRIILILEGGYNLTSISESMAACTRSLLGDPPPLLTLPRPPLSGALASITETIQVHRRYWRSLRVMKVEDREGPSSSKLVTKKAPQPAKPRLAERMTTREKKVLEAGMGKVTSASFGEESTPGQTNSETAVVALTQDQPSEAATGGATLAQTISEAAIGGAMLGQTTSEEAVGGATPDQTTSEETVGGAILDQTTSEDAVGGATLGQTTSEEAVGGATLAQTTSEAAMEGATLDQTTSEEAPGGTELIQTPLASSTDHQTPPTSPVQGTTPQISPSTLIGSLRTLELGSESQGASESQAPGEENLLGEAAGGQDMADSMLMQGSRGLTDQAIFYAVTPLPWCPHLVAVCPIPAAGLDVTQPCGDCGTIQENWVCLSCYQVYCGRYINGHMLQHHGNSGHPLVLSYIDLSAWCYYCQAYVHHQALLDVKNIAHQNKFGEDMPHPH
Assay: HDAC6 enzyme activity inhibition test (HDAC Fluorometric Drug Discovery Kit)
Settings: human recombinant HDAC6; same protocol as HDAC1
pIC50: −log10 of the molar value.
quantity measured: pIC50

{"smi": "Fc1cc(-c2nnc(C(F)F)o2)cnc1Cn1nc(-c2ccc(CN3CC[C@H](F)C3)cc2)oc1=S", "quantity measured": "pIC50", "recorded value": 7.22}
{"smi": "O=c1sc(-c2ccc(CN3CCN(C4CS(=O)(=O)C4)CC3)cc2)nn1Cc1ccc(-c2nnc(C(F)F)o2)cn1", "quantity measured": "pIC50", "recorded value": 6.98}
{"smi": "FC(F)c1nnc(-c2ccc(Cn3nc(-c4ccc(CN5CCCCC5)cc4)oc3=S)nc2)o1", "quantity measured": "pIC50", "recorded value": 7.52}
{"smi": "CN1CCc2cc(-c3nn(Cc4ncc(-c5nnc(C(F)F)o5)cc4F)c(=S)o3)ccc2C1", "quantity measured": "pIC50", "recorded value": 7.17}
{"smi": "O=c1oc(-c2cccc(C3CCN(C4COC4)CC3)c2)nn1Cc1ccc(-c2nnc(C(F)F)o2)cn1", "quantity measured": "pIC50", "recorded value": 7.07}
{"smi": "Fc1cc(-c2nnc(C(F)F)o2)cnc1Cn1nc(-c2ccc3c(c2)CCN(C2CCC2)C3)oc1=S", "quantity measured": "pIC50", "recorded value": 7.33}
{"smi": "FC(F)c1nnc(-c2ccc(Cn3nc(-c4ccc(CN5CCN(C6CCC6)CC5)cc4)oc3=S)nc2)o1", "quantity measured": "pIC50", "recorded value": 7.00}
{"smi": "CN(C)Cc1ccc(-c2nn(Cc3ncc(-c4nnc(C(F)F)o4)cc3F)c(=S)o2)s1", "quantity measured": "pIC50", "recorded value": 7.07}
{"smi": "Cn1ccc2ccc(-c3nn(Cc4ccc(-c5nnc(C(F)F)o5)cn4)c(=O)o3)cc21", "quantity measured": "pIC50", "recorded value": 7.11}
{"smi": "CC(C)N1CCN(c2cccc(-c3nn(Cc4ccc(-c5nnc(C(F)F)o5)cn4)c(=O)o3)n2)CC1", "quantity measured": "pIC50", "recorded value": 7.33}
{"smi": "O=c1oc(-c2ccc(CN3CCC3)cc2)nn1Cc1ccc(-c2nnc(C(F)F)o2)cn1", "quantity measured": "pIC50", "recorded value": 6.99}
{"smi": "FC(F)c1nnc(-c2ccc(Cn3nc(-c4cccc(CN5CC[C@H](F)C5)c4)oc3=S)nc2)o1", "quantity measured": "pIC50", "recorded value": 7.22}
{"smi": "Cn1c(-c2ccccc2)cn(Cc2ccc(-c3nnc(C(F)F)o3)cn2)c1=O", "quantity measured": "pIC50", "recorded value": 6.57}
{"smi": "Fc1cc(-c2nnc(C(F)F)o2)cnc1Cn1nc(-c2ccc3c(c2)CCN(C2CCCCC2)C3)oc1=S", "quantity measured": "pIC50", "recorded value": 7.31}
{"smi": "O=c1sc(-c2cccs2)nn1Cc1ccc(-c2nnc(C(F)F)o2)cn1", "quantity measured": "pIC50", "recorded value": 7.15}
{"smi": "CNCc1ccc(-c2nn(Cc3ccc(-c4nnc(C(F)F)o4)cn3)c(=S)o2)cc1", "quantity measured": "pIC50", "recorded value": 7.80}
